// endpoint pIC50 / system RET kinase (Homo sapiens, UniProt P07949)
pIC50 here: minus log base 10 of the concentration, concentration in moles per litre.

compound="N#Cc1cnn2cc(N3CC[C@@H](F)C3)cc(-c3ccc(N4CC5CC(C4)N5Cc4cnc5[nH]ccc5c4)nc3)c12 [Trifluoroacetate of compound 73]" observed_result=9.14
compound="COc1ccc(CN2C3CC2CN(c2cnc(-c4cc(N5CC[C@@H](F)C5)cn5ncc(C#N)c45)cn2)C3)cn1 [Trifluoroacetate of compound 67]" observed_result=8.96
compound="N#Cc1cnn2cc(C3=CCNCC3)cc(-c3ccc(N4CCN(Cc5c(F)cccc5F)CC4)nc3)c12 [Tfifluoroacetate of compound 25]" observed_result=8.79

Give pIC50 (RET kinase (Homo sapiens, UniProt P07949)) of the following compound: N#Cc1cnn2cc(C3=CCOCC3)cc(-c3ccc(N4CC5CC(C4)N5Cc4cnc5c(c4)OCO5)nc3)c12 [Trifluoroacetate of compound 44] 8.63

Give pIC50 (RET kinase (Homo sapiens, UniProt P07949)) of the following compound: COc1ccc(CN2C3CC2CN(c2cnc(-c4cc(N5CC[C@H](F)C5)cn5ncc(C#N)c45)cn2)C3)cn1 [Trifluoroacetate of compound 66] 8.79

Give pIC50 (RET kinase (Homo sapiens, UniProt P07949)) of the following compound: CCN1CCN(c2cc(-c3ccc(N4CC5CC(C4)N5Cc4ccc(OC)nc4)nc3)c3c(C#N)cnn3c2)CC1 [Trifluoroacetate of compound 17] 8.28

Give pIC50 (RET kinase (Homo sapiens, UniProt P07949)) of the following compound: CO[C@H]1C[C@@H](NC(=O)C2CCN(c3ccc(-c4cc(N5CCCC5)cn5ncc(C#N)c45)cn3)CC2)C1 [Trifluoroacetate of compound 61] 8.75

Give pIC50 (RET kinase (Homo sapiens, UniProt P07949)) of the following compound: COc1ccc(CN2C3CC2CN(c2ccc(-c4cc(N5CCOCC5)cn5ncc(C#N)c45)cn2)C3)cn1 [Trifluoroacetate of compound 9] 9.01

Give pIC50 (RET kinase (Homo sapiens, UniProt P07949)) of the following compound: N#Cc1cnn2cc(N3CCOCC3)cc(-c3ccc(N4CC5CC(C4)N5Cc4cnc5c(c4)OCO5)nc3)c12 [Trifluoroacetate of compound 13] 8.80

Give pIC50 (RET kinase (Homo sapiens, UniProt P07949)) of the following compound: COc1ccc(CN2C3CC2CN(c2cnc(-c4cc(C5CC5)cn5ncc(C#N)c45)cn2)C3)cn1 [Trifluoroacetate of compound 8] 8.94

Give pIC50 (RET kinase (Homo sapiens, UniProt P07949)) of the following compound: COc1ccc(CN2C3CC2CN(c2ccc(-c4cc(N5CCC(C)(O)CC5)cn5ncc(C#N)c45)cn2)C3)cn1 [Trifluoroacetate of compound 21] 8.70

Give pIC50 (RET kinase (Homo sapiens, UniProt P07949)) of the following compound: N#Cc1cnn2cc(N3CCOCC3)cc(-c3ccc(N4CC5CC(C4)N5Cc4cnc5[nH]ccc5c4)nc3)c12 [Trifluoroacetate of compound 14] 9.14

====

# protocol notes: Pharmacokinetic evaluation in mice (IV and PO)
# Assay type: in vivo
# cond: mouse, plasma; peros (PO) 2 mg/kg, female Balb/c mice
# Description: Experiment process: 0.1 mg/ml of the clear solution of each test compound in the corresponding solvents (as shown in Table 9) was injected into female Balb/c mice (fasting overnight. 7-9 weeks old) via the tail vein at a dose of 0.2 mg/% kg. […] The plasma concentration was determined by LC-MS/MS, and a WinNonlin™ Version 6.3 pharmacokinetic software (Pharsight, Mountain View, CA) was used to calculate related pharmacokinetic parameters by a linear-log trapezoidal method in a non-compartmental model. […]
measured parameter: Cmax (µM)
Reply with just the number (in µM).

Look up Cmax: COc1ccc(CN2C3CC2CN(c2ccc(-c4cc(N5CCC(F)(F)C5)cn5ncc(C#N)c45)cn2)C3)cn1 [Trifluoroacetate of compound 69] 3.63

====

# protocol notes: Pharmacokinetic evaluation in mice (IV and PO)
# Type: in vivo
# cond: mouse, plasma; peros (PO) 2 mg/kg, female Balb/c mice
measured parameter: Tmax

Look up Tmax: COc1ccc(CN2C3CC2CN(c2ccc(-c4cc(N5CCC(F)(F)C5)cn5ncc(C#N)c45)cn2)C3)cn1 [Trifluoroacetate of compound 69] 4 h

====

# protocol notes: Pharmacokinetic evaluation in mice (IV and PO)
# Assay type: in vivo
# cond: mouse, plasma; peros (PO) 2 mg/kg, female Balb/c mice
# Protocol: Experiment process: 0.1 mg/ml of the clear solution of each test compound in the corresponding solvents (as shown in Table 9) was injected into female Balb/c mice (fasting overnight. 7-9 weeks old) via the tail vein at a dose of 0.2 mg/% kg. […] The plasma concentration was determined by LC-MS/MS, and a WinNonlin™ Version 6.3 pharmacokinetic software (Pharsight, Mountain View, CA) was used to calculate related pharmacokinetic parameters by a linear-log trapezoidal method in a non-compartmental model. […]
measured parameter: AUC(0-t) (µM·h)
Reply with just the number (in µM·h).

Look up AUC(0-t): COc1ccc(CN2C3CC2CN(c2ccc(-c4cc(N5CCC(F)(F)C5)cn5ncc(C#N)c45)cn2)C3)cn1 [Trifluoroacetate of compound 69] 29.6

====

Quick reference: IC50 of the listed items.
# tested target: RET (V804M) kinase (Homo sapiens, UniProt P07949, V804M)
# Sequence (P07949 29-1114 V804M): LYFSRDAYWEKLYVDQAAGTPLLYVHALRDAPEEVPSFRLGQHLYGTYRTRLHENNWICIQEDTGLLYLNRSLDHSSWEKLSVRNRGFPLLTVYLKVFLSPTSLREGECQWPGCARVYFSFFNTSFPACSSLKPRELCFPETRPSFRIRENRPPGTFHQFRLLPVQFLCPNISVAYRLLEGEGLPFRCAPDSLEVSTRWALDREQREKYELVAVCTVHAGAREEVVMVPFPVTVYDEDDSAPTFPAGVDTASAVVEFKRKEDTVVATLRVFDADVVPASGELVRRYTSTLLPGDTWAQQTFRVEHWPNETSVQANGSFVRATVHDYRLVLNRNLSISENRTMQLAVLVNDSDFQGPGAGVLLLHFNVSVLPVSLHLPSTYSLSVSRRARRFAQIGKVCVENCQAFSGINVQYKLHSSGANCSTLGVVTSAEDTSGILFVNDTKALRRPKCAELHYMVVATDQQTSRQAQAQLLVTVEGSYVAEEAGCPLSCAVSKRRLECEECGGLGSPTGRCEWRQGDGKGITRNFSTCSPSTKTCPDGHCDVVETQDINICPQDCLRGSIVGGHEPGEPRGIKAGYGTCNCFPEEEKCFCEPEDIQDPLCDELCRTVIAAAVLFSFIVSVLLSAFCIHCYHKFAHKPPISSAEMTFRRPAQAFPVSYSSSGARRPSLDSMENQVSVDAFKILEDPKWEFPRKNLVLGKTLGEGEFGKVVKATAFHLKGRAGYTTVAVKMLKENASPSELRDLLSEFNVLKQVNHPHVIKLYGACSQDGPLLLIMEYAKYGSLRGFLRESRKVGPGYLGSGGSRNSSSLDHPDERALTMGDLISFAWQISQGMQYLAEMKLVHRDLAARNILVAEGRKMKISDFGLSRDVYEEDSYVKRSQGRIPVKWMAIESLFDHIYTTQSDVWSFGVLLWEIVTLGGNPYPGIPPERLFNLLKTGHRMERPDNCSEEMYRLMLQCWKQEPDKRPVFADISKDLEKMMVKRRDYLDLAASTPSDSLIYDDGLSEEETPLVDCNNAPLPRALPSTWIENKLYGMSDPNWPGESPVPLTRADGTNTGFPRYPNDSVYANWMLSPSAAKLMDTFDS
# protocol notes: In-vitro enzyme activity test, RET (V804M) kinase
# cond: ATP 30 μM; 10 concentrations 3 μM to 0.152 nM
Where a name gives a salt, the structure may show the parent alone.
Reply with just the number (in nM).

Previously resolved entries follow.
molecule="CN1CCC(c2cc(-c3ccc(N4CCN(Cc5c(F)cccc5F)CC4)nc3)c3c(C#N)cnn3c2)CC1 [Hydrochloride of compound 2]" measured_parameter=IC50 observed_result=1410
molecule="COc1ccc(CN2C3CC2CN(c2ccc(-c4cc(N5CCC(N(C)C)C5)cn5ncc(C#N)c45)cn2)C3)cn1 (stereo not shown) [Triftuoroacelate of compound 72]" measured_parameter=IC50 observed_result=12

Give IC50 (RET (V804M) kinase (Homo sapiens, UniProt P07949, V804M)) of the following molecule: CCN1CCC(c2cc(-c3ccc(N4CCN(Cc5c(F)cccc5F)CC4)nc3)c3c(C#N)cnn3c2)C1 (stereo not shown) [Trifluoroacetate of compound 7] 1930

Give IC50 (RET (V804M) kinase (Homo sapiens, UniProt P07949, V804M)) of the following molecule: CC(C)(O)CNC(=O)C1CCN(c2ccc(-c3cc(N4CCCC4)cn4ncc(C#N)c34)cn2)CC1 [Trifluoroacetate of compound 60] 19.9

Give IC50 (RET (V804M) kinase (Homo sapiens, UniProt P07949, V804M)) of the following molecule: COc1ccc(CN2C3CC2CN(c2ccc(-c4cc(C5=CCC(O)CC5)cn5ncc(C#N)c45)cn2)C3)cn1 (stereo not shown) [Trifluoroacetate of compound 39] 2.27

Give IC50 (RET (V804M) kinase (Homo sapiens, UniProt P07949, V804M)) of the following molecule: CC(C)Oc1ccc(CN2C3CC2CN(c2ccc(-c4cc(N5CCOCC5)cn5ncc(C#N)c45)cn2)C3)cn1 [Trifluoroacetate of compound 12] 0.51

Give IC50 (RET (V804M) kinase (Homo sapiens, UniProt P07949, V804M)) of the following molecule: N#Cc1cnn2cc(C3=CCOCC3)cc(-c3ccc(N4CCN(Cc5c(F)cccc5F)CC4)nc3)c12 [Trifluoroacetate of compound 22] 2.04

====

Structures can show the parent of a compound that is named as a salt.
// endpoint pIC50 / system RET kinase (Homo sapiens, UniProt P07949)
pIC50 here: minus log base 10 of the concentration, concentration in moles per litre.

molecule=COc1ccc(CN2C3CC2CN(c2cnc(-c4cc(N5CCC(F)(F)C5)cn5ncc(C#N)c45)cn2)C3)cn1 tested_target="RET kinase (Homo sapiens, UniProt P07949)" observed_result=9.18
molecule="C[C@@H](C(=O)N1CCN(c2ccc(-c3cc(N4CCOCC4)cn4ncc(C#N)c34)cn2)CC1)c1ccccc1 [Hydrochloride of compound 4]" tested_target="RET kinase (Homo sapiens, UniProt P07949)" observed_result=8.62
molecule=COc1ccc(CN2C3CC2CN(c2ccc(-c4cc(N5CC[C@H](OC)C5)cn5ncc(C#N)c45)cn2)C3)cn1 tested_target="RET kinase (Homo sapiens, UniProt P07949)" observed_result=9.11

Attention now shifts to the item below.
Give pIC50 (RET kinase (Homo sapiens, UniProt P07949)) of the following molecule: COc1ccc(CN2C3CC2CN(c2cnc(-c4cc(N5CCCC5)cn5ncc(C#N)c45)cn2)C3)cn1 [Triftuoroacetate of compound 64] 8.91

====

Quick reference: bioavailability of the listed items.
# protocol notes: Pharmacokinetic evaluation in mice (IV and PO)
# Type: in vivo
# cond: mouse, plasma; peros (PO) 2 mg/kg vs IV 0.2 mg/kg, female Balb/c mice; read-out: F (bioavailability)
Reply with just the number (in %).

Look up bioavailability: COc1ccc(CN2C3CC2CN(c2cnc(-c4cc(C5=CCOCC5)cn5ncc(C#N)c45)cn2)C3)cn1 [Trifluoroacetate of compound 30] 96.4

Look up bioavailability: COc1ccc(CN2C3CC2CN(c2ccc(-c4cc(N5CCC(F)(F)C5)cn5ncc(C#N)c45)cn2)C3)cn1 [Trifluoroacetate of compound 69] 74.7

All values here come from patent US12297197B2.
